Origin of values: patent US20230250156A1

- target or system: SARS-CoV-2 RBD protein (SARS-CoV-2, UniProt P0DTC2 319-541)
pIC50: −log10 of the molar value.
Quick list: pIC50 per entry.
measured attribute: pIC50

binder="Q178 (VHH QB-GB IgG, non-Quad format) (VHH) VHH: QVQLQESGGGLVQAGGSLRLSCAASGRTFSEYAMGWFRQAPGKEREFVATISWSGGSTYYTDSVKGRFTISRDNAKNTVYLQMNSLKPDDTAVYYCAAAGLGTVVSEWDYDYDYWGQGTQVTVSS" test_value=9.73
binder="Q179 (VHH QB-GB Ig-TD) (VHH) VHH: QVQLQESGGGLVQAGGSLRLSCAASGRTFSEYAMGWFRQAPGKEREFVATISWSGGSTYYTDSVKGRFTISRDNAKNTVYLQMNSLKPDDTAVYYCAAAGLGTVVSEWDYDYDYWGQGTQVTVSS" test_value=10.48
binder="Q177 (VHH QB-GB-TD) (VHH) VHH: QVQLQESGGGLVQAGGSLRLSCAASGRTFSEYAMGWFRQAPGKEREFVATISWSGGSTYYTDSVKGRFTISRDNAKNTVYLQMNSLKPDDTAVYYCAAAGLGTVVSEWDYDYDYWGQGTQVTVSS" test_value=10.19
binder="Q185 (VHH QB-GB dimeric TD) (VHH) VHH: QVQLQESGGGLVQAGGSLRLSCAASGRTFSEYAMGWFRQAPGKEREFVATISWSGGSTYYTDSVKGRFTISRDNAKNTVYLQMNSLKPDDTAVYYCAAAGLGTVVSEWDYDYDYWGQGTQVTVSS" test_value=10.63
